- tgt: hEP2 receptors (Homo sapiens)
- Sequence (P43116 whole entry): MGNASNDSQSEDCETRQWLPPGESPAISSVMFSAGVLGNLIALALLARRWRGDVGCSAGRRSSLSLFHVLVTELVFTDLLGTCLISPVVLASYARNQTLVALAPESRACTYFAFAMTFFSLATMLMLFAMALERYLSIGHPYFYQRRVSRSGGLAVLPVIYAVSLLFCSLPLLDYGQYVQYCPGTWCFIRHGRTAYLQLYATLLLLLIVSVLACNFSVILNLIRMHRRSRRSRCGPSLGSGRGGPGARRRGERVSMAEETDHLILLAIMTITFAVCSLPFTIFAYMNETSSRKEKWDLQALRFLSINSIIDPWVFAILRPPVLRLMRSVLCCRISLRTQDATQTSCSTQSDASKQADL
- assay_text: EP2 cAMP assay, HEK293-EBNA cells transfected with pCEP4-hEP2 receptors
- experimental_setup: total cAMP, 1 hour

# compound, EC50, nM
rows = [
    ("CC/C=C/C=C\\[C@H]1CCC(=O)N1CCc1ccc(C(=O)O)cc1", 2600),
    ("CCCC/C=C(C)/C=C/[C@H]1CCC(=O)N1CCc1ccc(C(=O)O)cc1", 23),
    ("CCCC/C(C)=C/C=C\\[C@H]1CCC(=O)N1CCCc1ccc(C(=O)O)s1 (single isomer, unassigned)", 49),
    ("CCCC/C=C/C=C\\[C@H]1CCC(=O)N1CCc1ccc(C(=O)O)cc1", 197),
    ("CC(C)=CCC/C(C)=C/C=C\\[C@H]1CCC(=O)N1CCc1ccc(C(=O)O)cc1", 1050),
]
